Taken from patent US20260167959A1.

Each record here notes measured Fold change in RNA expression between the ON state and the OFF state.
# System: Renilla luciferase RNA
# assay-overview: Barcoded aptazyme variant library screen: un-cleaved Renilla luciferase RNA by barcode read counts, HEK293-T cells
# Type: cell-based
# settings: un-cleaved Renilla luciferase RNA, HEK293-T cells cultured with 1 mM theophylline (ON) over without theophylline (OFF); barcode read counts, triplicate

Sample records with Fold change in RNA expression between the ON state and the OFF state:
| molecule | assay-value |
| --- | --- |
| RA221 (nucleic acid, expressed or natural sequence) DNA: GCGCGTCCTGGATTCGCGGAAACGCGTACATCCAGCTGACGGAATACCAGCATCGTCTTGATGCCCTTGGAAGTCCGCGAGTCCCAAATAGGACGAAACGCGC | 1.2 fold |
| RA284 (nucleic acid, expressed or natural sequence) DNA: GCGCGTCCTGGATTCGCGGAAACGGAATACCAGCATCGTCTTGATGCCCTTGGAAGTCCGCGTACATCCAGCTGACGAGTCCCAAATAGGACGAAACGCGC | 1.0 fold |
| RA202 (nucleic acid, expressed or natural sequence) DNA: GCGCGTCCTGGATAGTGATACCAGCATCGTCTTGATGCCCTTGGCAGCACTTCGCGGAAACGCGTACATCCAGCTGACGAGTCCCAAATAGGACGAAACGCGC | 1.2 fold |
| RA173 (nucleic acid, expressed or natural sequence) DNA: GCGCGTCCTGGATTCGCGGAAACGCGTACATCCAGCTGACGAGTCCCAAATAGCGGAATACCAGCATCGTCTTGATGCCCTTGGAAGTCCGGACGAAACGCGC | 1.3 fold |
| RA176 (nucleic acid, expressed or natural sequence) DNA: GCGCGTCCTGGAATACCAGCATCGTCTTGATGCCCTTGGAAGTCCGGATTCGCGGAAACGCGTACATCCAGCTGACGAGTCCCAAATAGGACGAAACGCGC | 1.3 fold |
| RA089 (nucleic acid, expressed or natural sequence) DNA: GCGCGTCCTGGATTCGCGGAAACGCGTACATCCAGCTGACGAGTCCCAAATAGGACCGGAATACCAGCATCGTCTTGATGCCCTTGGAAGTCCGGAAACGCGC | 1.7 fold |

For the molecule shown here, RA150 (nucleic acid, expressed or natural sequence) DNA: GCGCGTCCTGGATTCGCGGAAACGCGTACATCCAGCTGACGAGTCCCAAATAGGACGAAAGGAATACCAGCATCGTCTTGATGCCCTTGGAAGTCCCGCGC , give the reported Fold change in RNA expression between the ON state and the OFF state.
1.4 fold

Next molecule: RA037 (nucleic acid, expressed or natural sequence) DNA: GCGCGTCCTGGATTCGCCGGAATACCAGCATCGTCTTGATGCCCTTGGAAGTCCGGGAAACGCGTACATCCAGCTGACGAGTCCCAAATAGGACGAAACGCGC
2.2 fold

Could you do the same for RA261 (nucleic acid, expressed or natural sequence) DNA: GCGCGTCCTGGATTCGCGGAAACGCGTACATCCAGCTGACGAGTCCCAACGAGAATACCAGCATCGTCTTGATGCCCTTGGAAGTCTCGATAGGACGAAACGCGC , please?
1.1 fold

What do you have for RA051 (nucleic acid, expressed or natural sequence) DNA: GCGCGTCCTGGATTCGCGGAAACGCGTACATCCAGCTGACGAGTCCCAAATAGGACGAAACCGAGAATACCAGCATCGTCTTGATGCCCTTGGAAGTCTCGGCGC ?
2.0 fold

Try this molecule too: RA110 (nucleic acid, expressed or natural sequence) DNA: GCGCGTCCTGGGGAATACCAGCATCGTCTTGATGCCCTTGGAAGTCCATTCGCGGAAACGCGTACATCCAGCTGACGAGTCCCAAATAGGACGAAACGCGC
1.6 fold

Now give it for RA200 (nucleic acid, expressed or natural sequence) DNA: GCGCGTCCTGGATTCGCGGAAACGCGTACATCCGAGAATACCAGCATCGTCTTGATGCCCTTGGAAGTCTCGCAGCTGACGAGTCCCAAATAGGACGAAACGCGC too.
1.2 fold

Then this molecule: RA301 (nucleic acid, expressed or natural sequence) DNA: GCGAGTGATACCAGCATCGTCTTGATGCCCTTGGCAGCACTCGTCCTGGATTCGCGGAAACGCGTACATCCAGCTGACGAGTCCCAAATAGGACGAAACGCGC
1.0 fold

Field entry: RA258 (nucleic acid, expressed or natural sequence) DNA: GCGCGTCCTGGATTAGTGATACCAGCATCGTCTTGATGCCCTTGGCAGCACTCGCGGAAACGCGTACATCCAGCTGACGAGTCCCAAATAGGACGAAACGCGC
1.1 fold
